# testedSystem: pre-existing anti-scFv903 antibodies in human serum H54 (human)
# procedureText: competition ADA bridging ELISA
Reported signal change in competition ELISA (% reduction in OD) is given for each of the following binders.
Answer with a number only, understood to be in %.

Example results:
[
  {
    "binder": "scFv 903 (scFv) scFv: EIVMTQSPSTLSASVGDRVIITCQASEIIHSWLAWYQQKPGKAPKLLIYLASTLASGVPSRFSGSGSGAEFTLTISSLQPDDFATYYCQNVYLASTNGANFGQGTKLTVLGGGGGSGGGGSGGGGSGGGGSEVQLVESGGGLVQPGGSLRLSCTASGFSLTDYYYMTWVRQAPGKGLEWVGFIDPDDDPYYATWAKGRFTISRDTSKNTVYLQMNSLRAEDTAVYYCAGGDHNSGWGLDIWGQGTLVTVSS",
    "recordedResult": -93
  },
  {
    "binder": "scFv105 (scFv) scFv: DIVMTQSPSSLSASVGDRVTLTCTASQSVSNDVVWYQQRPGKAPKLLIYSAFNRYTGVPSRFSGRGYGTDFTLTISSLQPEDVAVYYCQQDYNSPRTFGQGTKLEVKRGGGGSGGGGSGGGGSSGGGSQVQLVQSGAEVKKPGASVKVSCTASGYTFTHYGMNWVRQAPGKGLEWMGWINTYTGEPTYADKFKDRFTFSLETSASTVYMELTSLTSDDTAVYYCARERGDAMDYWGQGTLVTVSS",
    "recordedResult": -61
  },
  {
    "binder": "scFv 961 (scFv) scFv: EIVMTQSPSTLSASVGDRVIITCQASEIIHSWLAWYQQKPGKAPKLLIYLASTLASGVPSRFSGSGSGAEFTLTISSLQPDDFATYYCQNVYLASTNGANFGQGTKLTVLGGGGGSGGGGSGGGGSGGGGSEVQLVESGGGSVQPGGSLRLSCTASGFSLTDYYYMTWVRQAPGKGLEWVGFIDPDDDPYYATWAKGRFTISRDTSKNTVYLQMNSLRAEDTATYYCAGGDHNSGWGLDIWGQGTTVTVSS",
    "recordedResult": -69
  }
]

Task item: Please indicate signal change in competition ELISA (% reduction in OD) recorded for scFv 791 (scFv) scFv: MEIVMTQSPSTLSASLGDRVIITCQSSQSVYGNIWMAWYQQKSGKAPKLLIYQASKLASGVPSRFSGSGSGAEFSLTISSLQPDDFATYYCQGNFNTGDRYAFGQGTKLTVLGGGGGSGGGGSGGGGSGGGGSEVQLVESGGGLVQPGGSLRLSCTASGFTISRSYWICWVRQAPGKGLEWVACIYGDNDITPLYANWAKGRFPVSTDTSKNTVYLQMNSLRAEDTAVYYCARLGYADYAYDLWGQGTLVTVSS
Reply: -92
